- Tested on: HL-60(TB) leukemia
- method description: NCI-60 one-dose screen, 48 h (100 = growth as untreated, 0 = no growth, -100 = all killed)
- condition parameters: 10 µM unless noted
- Description: Growth inhibition of the HL-60(TB) human tumor cell line is measured as a screen for anti-cancer activity. Cells are grown in 96 well plates and exposed to the test compound for 48 hours. Compounds are tested at a single concentration, which is 10^-5 M for most compounds. The reported endpoint is percent growth (GI% or GIPRCNT), where numbers from 0 - 100% represent growth inhibition, and numbers from -100% - 0 represent cell death. For example, a value of 40 represents 60% growth inhibition. […]
The panel holds about 83,000 compounds, 20% with a hit somewhere; the sample as a whole holds those more often.
observable: growth (%)
Respond with the bare value in %.

compound	observable	quantitative result
COc1cc2c(c(OC)c1OC)-c1ccc(NNC(=S)N(Cc3cccc(C[N+](Cc4cccc(CNC56CC7CC(CC(C7)C5)C6)c4)(Cc4cccc(CNC56CC7CC(CC(C7)C5)C6)c4)Cc4cccc(CN(C(=S)NNc5ccc6c(cc5=O)[C@@H](NC(C)=O)CCc5cc(OC)c(OC)c(OC)c5-6)C56CC7CC(CC(C7)C5)C6)c4)c3)C34CC5CC(CC(C5)C3)C4)c(=O)cc1[C@@H](NC(C)=O)CC2 (stereo partly drawn)	growth	-63.4
O=C(Nc1ccc(Cl)c(Cl)c1)OCn1ncc2ccc([N+](=O)[O-])cc21	growth	96.3
CN(C)Cc1ccc(O)c(C(=O)O)c1	growth	107

Then this compound:
The compound listed as `CCOC(=O)C1=C(C)c2ccc(OC)c(OC)c2C1` shows growth equal to 106

----------
- Test system: RPMI-8226 leukemia
- method description: NCI-60 one-dose screen, 48 h
- condition parameters: 10 µM unless noted
The panel holds about 83,000 compounds, 20% with a hit somewhere; the sample as a whole holds those more often. The source made the active and inactive calls. How the source made its calls: active means growth percent below 10; inactive means the rest.
Form entry, call: pick from True = active, False = inactive

Some solved entries appear below for comparison.
compound	category label
O=[As]c1ccc(C(=O)c2ccc(Oc3ccccc3)cc2)cc1 (stereo not given)	True
NC(=O)C(Cl)Cl	False
C=CC(=O)NC(O)C(Cl)(Cl)Cl (stereo not given)	False
CCOc1ccc(C(O)CN(C)Cc2ccccc2)cc1Cl (stereo not given)	False
CC(=O)O[C@H]1CCC2(C)C(=CCC3C2CCC2(C)/C(=N/OC(=O)c4ccc(N(CCCl)CCCl)cc4)CCC32)C1 (stereo not given in full)	False
CC(C)Nc1ccc(Nc2ccccc2)cc1	False
CN(C)P1(N(C)C)=NP(N(C)C)(N(C)C)=NP(N(C)C)(N(C)C)=N1	False
Nc1ncnc2c1c(C(=O)NO)cn2C1OC(CO)C(O)C1O (stereo not given)	True
C1CN1c1nc(N2CC2)nc(N2CC2)n1	False
CCOC(=O)/C(C#N)=C/c1ccc(N(CCCl)CCCl)cc1	False

Challenge: Hello, I am checking results. What call was entered for `CCOCC1(CCc2ccccc2)C(=O)NC(=S)NC1=O` ?
Response given: False

Challenge: Hello, I am checking results. What call was entered for `C[C@]12CC[C@@H]3c4ccc(OC(=O)Cc5ccc(N(CCCl)CCCl)cc5)cc4CC[C@H]3[C@@H]1CC[C@@H]2OC(=O)Cc1ccc(N(CCCl)CCCl)cc1` ?
Response given: False

Challenge: Hello, I am checking results. What call was entered for `CNC(=O)Oc1cccc(OC)c1` ?
Response given: False

Challenge: Hello, I am checking results. What call was entered for `CC1(C)N=C(N)N=C(N)N1c1ccc(CCCCc2ccc(S(=O)(=O)F)cc2)c(Cl)c1` ?
Response given: True

Challenge: Hello, I am checking results. What call was entered for `Clc1ccc(SSC(Cl)(Cl)Cl)cc1` ?
Response given: False

Challenge: Hello, I am checking results. What call was entered for `CC1(C)N=C(N)N=C(N)N1c1ccc(CCCCc2ccc(S(=O)(=O)F)cc2)cc1` ?
Response given: False

Challenge: Hello, I am checking results. What call was entered for `O=C(O)c1cccc(CCl)c1` ?
Response given: False

Challenge: Hello, I am checking results. What call was entered for `CCCCNCCc1ccccn1` ?
Response given: False

Challenge: Hello, I am checking results. What call was entered for ClCCN(CCCl)C(c1ccccc1)c1ccc(Cl)cc1 (stereo not given) ?
Response given: False

Challenge: Hello, I am checking results. What call was entered for `CC(C)(NC(=O)c1nn(CCCCCF)c2ccccc12)c1ccccc1` ?
Response given: False

Challenge: Hello, I am checking results. What call was entered for O=C1C=CC(=O)C2C1C1(Cl)C(Cl)=C(Cl)C2(Cl)C1(Cl)Cl (stereo not given) ?
Response given: False

Challenge: Hello, I am checking results. What call was entered for `O=[N+]([O-])c1ccc(/C=C/C=C/c2ccc(S(=O)(=O)F)cc2)c(Cl)c1` ?
Response given: False

Challenge: Hello, I am checking results. What call was entered for `Cc1nnc([S-])s1.[Au+].c1ccc([PH+](c2ccccc2)c2ccccc2)cc1` ?
Response given: True

Challenge: Hello, I am checking results. What call was entered for Cc1ccc2oc(=O)c3c(c2c1)OC(N)=C(C#N)C3c1ccco1 (stereo not given) ?
Response given: False

Challenge: Hello, I am checking results. What call was entered for `CC(C)N=C(NC(C)C)N1CC1` ?
Response given: False

Challenge: Hello, I am checking results. What call was entered for `COc1ccc(/C=C\c2cc(OC)c(OC)c(OC)c2)cc1N/C=C\C(=O)c1c[nH]c2ccccc12` ?
Response given: False

Challenge: Hello, I am checking results. What call was entered for CCCCCCCC(=O)OCC/C=C/C1OC1C1OC(=O)/C=C\C=C\c2nc(oc2C)/C=C(/C)CCC2OC2C1OC(=O)NC(C)=O (stereo not given) ?
Response given: True

----------
Recorded growth by entry
- Tested on: HL-60(TB) leukemia
- method description: NCI-60 one-dose screen, 48 h (100 = growth as untreated, 0 = no growth, -100 = all killed)
- condition parameters: 10 µM unless noted
The panel holds about 83,000 compounds, 20% with a hit somewhere; the sample as a whole holds those more often.
Respond with the bare value in %.

compound	value units	growth
Fc1ccc(Nc2ccnc(N3CCN(c4ccnc5cc(Cl)ccc45)CC3)n2)cc1	%	15.9
O=C(/C=C/c1cccc(Cl)c1)c1ccc(Nc2nc(Nc3ccc(F)cc3)nc(Nc3ccc(Cl)cc3)n2)cc1	%	52.8
CN(C)CCCSc1ccccc1NC1=C(Cl)C(=O)C(Nc2ccccc2SCCCN(C)C)=C(Cl)C1=O	%	-34.8
N=c1nc(N2CCCCC2)cc(N)n1O	%	92.4
c1cc(OCCN2CCCCCC2)ccc1CNc1ccc2nc(CCC3CCCCC3)[nH]c2c1	%	22.9
Cn1cnc2c(F)c(Nc3ccc(Br)cc3Cl)c(C(=O)NOCCO)cc21	%	24.5
CCOC(=O)C#Cc1c(C(=O)OCC)nnn1[C@@H]1O[C@H](COC)[C@@H](OC)[C@H]1OC	%	47.5
COc1cc(CNC(=O)CCCC/C=C/C(C)C)ccc1OCc1cn(-c2ccc([N+](=O)[O-])cc2)nn1	%	81
CCCCCCN1C(=O)/C(=c2\sc3n(c2=O)C2C(NN=3)N(CC)C(=O)N2CC)c2ccccc21 (configuration not stated)	%	42.2
COc1ccc(S(=O)(=O)NCCNc2nccc(-c3c(-c4cccc([N+](=O)[O-])c4)nc4sccn34)n2)cc1	%	110

The compound listed as `CC1CCN(CCOc2ccc(CNc3ccc4nc(CCC5CCCCC5)[nH]c4c3)cc2)CC1` shows growth equal to 5.83

The compound listed as `CCc1ccc(C2=C(O)C(=O)C(c3ccc(CC)cc3)=C(O)C2=O)cc1` shows growth equal to -57.6

The compound listed as `COc1ccc(-c2cc(-c3cccnc3)nc3sc4c(=O)n(-c5ccc(C)cc5)cnc4c23)cc1OC` shows growth equal to 107

The compound listed as `CCC[CH2][Sn]([CH2]CCC)([CH2]CCC)[O]C(=O)c1ccc(Cl)cc1Cl` shows growth equal to -32.7

The compound listed as COc1ccc(C(O)c2cc3c(N)c(C(=O)Nc4cccc(Br)c4C)sc3nc2C)cc1 (configuration not stated) shows growth equal to -41

The compound listed as `CS(=O)(=O)Nc1cc(-c2ccc3ncnc(Nc4ccc(OCc5ccccn5)c(Cl)c4)c3c2)cnc1Cl` shows growth equal to 4.82

The compound listed as CC1CN(/N=C/c2ccc([N+](=O)[O-])o2)C(=N)O1 (configuration not stated) shows growth equal to 99.8

The compound listed as `O=C1/C(=C\C(Cl)=C/c2ccc([N+](=O)[O-])cc2)SC(=S)N1CCc1ccc(O)cc1` shows growth equal to 2.21

The compound listed as `CCCCCCCCCCCCCCCCCCNCc1ccc(Cl)cc1` shows growth equal to -65.8

The compound listed as `COc1cc(-c2cc(/C=C3\C(=O)Nc4ccccc43)[nH]n2)cc(OC)c1OC` shows growth equal to -12.1

The compound listed as COc1ccc(C2C(N)=NNC2c2cccc(O)c2)cc1 (configuration not stated) shows growth equal to 97.9

The compound listed as `O=C1C(Br)=C(c2ccccc2)C(=O)C(Br)=C1c1ccccc1` shows growth equal to 78.6
